- system tested: Adenosine receptor A1 (Homo sapiens) (UniProt P30542)
- Sequence (P30542 whole entry): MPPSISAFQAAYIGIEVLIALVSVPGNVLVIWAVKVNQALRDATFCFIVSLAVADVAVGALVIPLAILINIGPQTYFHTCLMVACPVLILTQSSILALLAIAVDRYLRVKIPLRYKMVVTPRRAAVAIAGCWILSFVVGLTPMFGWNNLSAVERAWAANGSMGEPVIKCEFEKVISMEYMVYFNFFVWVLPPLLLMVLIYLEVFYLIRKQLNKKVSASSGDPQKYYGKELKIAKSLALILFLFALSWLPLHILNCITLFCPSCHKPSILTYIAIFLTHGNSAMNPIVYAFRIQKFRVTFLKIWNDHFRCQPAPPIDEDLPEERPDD
- method summary: Displacement of [3H]DPCPX from human adenosine A1 receptor expressed in CHO cell membranes assessed as kinetic rate index by measuring ratio of binding at earlier and later time points by competition association assay
readout: Ratio

For the compound COc1ccc(-c2c(C#N)c(N)nc(SCc3csc(-c4ccccc4)n3)c2C#N)cc1 , what Ratio is on record? 1.23

For the compound N#Cc1c(N)nc(SCc2csc(-c3ccc(Cl)cc3)n2)c(C#N)c1-c1ccc(O)cc1 , what Ratio is on record? 2.07

For the compound COc1ccc(-c2c(C#N)c(N)nc(SCc3csc(-c4ccc(Br)cc4)n3)c2C#N)cc1 , what Ratio is on record? 1.55

For the compound COc1ccc(-c2c(C#N)c(N)nc(SCc3csc(-c4ccc(Cl)cn4)n3)c2C#N)cc1 , what Ratio is on record? 1.64

---

- system tested: Adenosine receptor A3 (Homo sapiens) (UniProt P0DMS8)
- Sequence (P0DMS8 whole entry): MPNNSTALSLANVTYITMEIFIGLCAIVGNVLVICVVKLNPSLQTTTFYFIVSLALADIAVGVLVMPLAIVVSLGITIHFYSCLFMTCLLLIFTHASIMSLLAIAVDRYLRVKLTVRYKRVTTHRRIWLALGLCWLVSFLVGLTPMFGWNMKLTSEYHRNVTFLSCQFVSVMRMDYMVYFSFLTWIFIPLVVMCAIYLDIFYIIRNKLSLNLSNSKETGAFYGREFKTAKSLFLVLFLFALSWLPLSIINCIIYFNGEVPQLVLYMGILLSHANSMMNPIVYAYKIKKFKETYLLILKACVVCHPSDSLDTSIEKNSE
- method summary: Displacement of [3H]PSB11 from human adenosine A3 receptor expressed in CHO cell membranes at 1 uM by competition association assay
Can you tell me inhibition for the items I'm about to list?
Give a bare numeral; the unit % is implied.

// fetch Adenosine receptor A3 (Homo sapiens) (UniProt P0DMS8) inhibition for COc1ccc(-c2c(C#N)c(N)nc(SCc3cscn3)c2C#N)cc1 50

// fetch Adenosine receptor A3 (Homo sapiens) (UniProt P0DMS8) inhibition for COc1ccc(-c2c(C#N)c(N)nc(SCc3csc(-c4ccccn4)n3)c2C#N)cc1 22

// fetch Adenosine receptor A3 (Homo sapiens) (UniProt P0DMS8) inhibition for N#Cc1c(N)nc(SCc2csc(-c3ccc(Cl)cc3)n2)c(C#N)c1-c1ccc(OCCO)cc1 1.2

// fetch Adenosine receptor A3 (Homo sapiens) (UniProt P0DMS8) inhibition for COc1ccc(-c2c(C#N)c(N)nc(SCc3csc(-c4ccccc4)n3)c2C#N)cc1 27

---

- system tested: Adenosine receptor A1 (Homo sapiens) (UniProt P30542)
- method summary: Displacement of [3H]DPCPX from human adenosine A1 receptor expressed in CHO cell membranes assessed as residence time by competition association assay
Can you tell me TIME for the items I'm about to list?
Give a bare numeral; the unit h is implied.

For the molecule COc1ccc(-c2c(C#N)c(N)nc(SCc3csc(-c4ccccc4Cl)n3)c2C#N)cc1 , what TIME is on record? 0.695

For the molecule COc1ccc(-c2c(C#N)c(N)nc(SCc3nc(-c4ccc(Cl)cc4)sc3Cl)c2C#N)cc1 , what TIME is on record? 0.595

For the molecule N#Cc1c(N)nc(SCc2csc(-c3ccc(Cl)cc3)n2)c(C#N)c1-c1ccc(O)cc1 , what TIME is on record? 0.595

For the molecule COc1ccc(-c2c(C#N)c(N)nc(SCc3csc(-c4ccc(Br)cn4)n3)c2C#N)cc1 , what TIME is on record? 0.555
